- System: NCI-H522 lung
- measurement_notes: NCI-60 one-dose screen, 48 h (100 = growth as untreated, 0 = no growth, -100 = all killed)
- conditions: 10 µM unless noted
This is part of a sample that, as a whole, favours compounds with a hit. Of some 83,000 tested, about 20% had one in any assay.
quantity_measured: growth (%)
Kindly answer with a numeric value in %, unit omitted.

What growth value was documented for this compound, O=NN1CCCc2cccc(O)c21 ?
-21.7

Next entry: CC(=O)O[C@H](C[C@H](C(C)C)N(C)C(=O)[C@@H](NC(=O)[C@H]1CCCN1C)C(C)C)c1nc(C(=O)N[C@@H](Cc2ccccc2)C[C@H](C)C(=O)O)c(C)s1
-24.7

Would you kindly repeat that for CCn1c2ccccc2c2cc(C(=O)c3ccc(C)c4ccccc34)ccc21 ?
0.105
